target: Cytochrome P450 3A4 (Homo sapiens, UniProt P08684)
Sequence (P08684 whole entry): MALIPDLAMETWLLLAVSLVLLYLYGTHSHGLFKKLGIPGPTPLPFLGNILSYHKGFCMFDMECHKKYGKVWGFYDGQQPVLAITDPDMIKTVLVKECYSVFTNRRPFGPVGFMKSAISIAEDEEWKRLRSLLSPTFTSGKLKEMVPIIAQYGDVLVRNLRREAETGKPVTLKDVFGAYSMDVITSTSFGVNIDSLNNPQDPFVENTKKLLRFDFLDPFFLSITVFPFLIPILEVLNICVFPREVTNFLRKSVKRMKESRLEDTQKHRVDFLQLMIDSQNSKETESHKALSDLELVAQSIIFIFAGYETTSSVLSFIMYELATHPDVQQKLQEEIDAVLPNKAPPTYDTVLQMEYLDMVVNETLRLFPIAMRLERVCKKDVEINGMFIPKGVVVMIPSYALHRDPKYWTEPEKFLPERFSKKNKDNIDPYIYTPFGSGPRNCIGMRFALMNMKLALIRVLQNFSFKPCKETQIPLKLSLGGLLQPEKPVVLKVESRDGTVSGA
MEASUREMENT_KIND: AC50

### Prompt Entry O=S(=O)(N=C(Nc1ccccn1)c1ccccc1)c1ccc(Cl)cc1 , system Cytochrome P450 3A4 (Homo sapiens, UniProt P08684): what AC50 was measured?;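 further: CYP3A4 tested as one member of a cytochrome P450 panel screen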
### Response 1.41 µM (inconclusive)

### Prompt Queued: COc1cccc(Cn2c(=O)c(-c3cccc(C#N)c3)nc3cnc(N4CCN(C)CC4)nc32)c1
### Response 25.1 µM (inconclusive)

### Prompt Here is the next compound: CC1=CC(C)(C)N=C(S)N1c1cccc(C)c1
### Response 25.1 µM (inconclusive)

### Prompt Please do the same for CC[C@H](c1ccccc1)c1cc(C(C)(C)C)cc(C(C)(C)C)c1O as well.
### Response 5.01 µM (inconclusive)

### Prompt Now consider O=C(Nc1ncc(Cc2cccc(Cl)c2)s1)c1cccs1 .
### Response 15.8 µM (inconclusive)

### Prompt Lookup C/C(CCN1CCCCc2nc(C)c(C)cc21)=N\OC[C@@H](C)[C@H](OCc1ccccc1)C(C)C
### Response 3.16 µM (inconclusive)

###

molecular target: Nonstructural protein 1 (Influenza A virus); type: functional, Influenza A virus (A/California/07/2009(H1N1))
Sequence (Q194T2 whole entry): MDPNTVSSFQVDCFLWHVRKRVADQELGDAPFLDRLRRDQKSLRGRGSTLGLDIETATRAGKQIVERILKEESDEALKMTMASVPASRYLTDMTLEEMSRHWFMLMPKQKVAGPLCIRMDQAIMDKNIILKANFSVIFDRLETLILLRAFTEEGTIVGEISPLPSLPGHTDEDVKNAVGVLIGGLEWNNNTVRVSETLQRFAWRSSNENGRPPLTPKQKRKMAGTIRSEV
Active and inactive are the calls of the source.
MEASUREMENT_KIND: IC50

### Prompt Endpoint output: IC50 of CC1NC(=O)NC1CCCCCC(=O)Nc1ccc(F)cc1 (centres undefined) . Value?
### Response 0.979 µM (active)

### Prompt // next record COc1ccccc1Nc1ncccc1[N+](=O)[O-]
### Response 29.9 µM (active)

### Prompt Now the same for COc1cccc(N=Nc2ccc3ccccc3c2O)c1
### Response 5.22 µM (active)

### Prompt Also O=C(O)c1cc2c3ccccc3nc-2c[nH]1 , if possible.
### Response 5.27 µM (active)

###

biological target: Rac GTPase-activating protein 1 (Homo sapiens, UniProt Q9H0H5); test: MgcRacGAP GTPase-activating activity inhibitors, confirmation, biochemical, ADP Hunter fluorescence, primary and confirmatory (AID 624330); type: functional
Sequence (Q9H0H5 whole entry): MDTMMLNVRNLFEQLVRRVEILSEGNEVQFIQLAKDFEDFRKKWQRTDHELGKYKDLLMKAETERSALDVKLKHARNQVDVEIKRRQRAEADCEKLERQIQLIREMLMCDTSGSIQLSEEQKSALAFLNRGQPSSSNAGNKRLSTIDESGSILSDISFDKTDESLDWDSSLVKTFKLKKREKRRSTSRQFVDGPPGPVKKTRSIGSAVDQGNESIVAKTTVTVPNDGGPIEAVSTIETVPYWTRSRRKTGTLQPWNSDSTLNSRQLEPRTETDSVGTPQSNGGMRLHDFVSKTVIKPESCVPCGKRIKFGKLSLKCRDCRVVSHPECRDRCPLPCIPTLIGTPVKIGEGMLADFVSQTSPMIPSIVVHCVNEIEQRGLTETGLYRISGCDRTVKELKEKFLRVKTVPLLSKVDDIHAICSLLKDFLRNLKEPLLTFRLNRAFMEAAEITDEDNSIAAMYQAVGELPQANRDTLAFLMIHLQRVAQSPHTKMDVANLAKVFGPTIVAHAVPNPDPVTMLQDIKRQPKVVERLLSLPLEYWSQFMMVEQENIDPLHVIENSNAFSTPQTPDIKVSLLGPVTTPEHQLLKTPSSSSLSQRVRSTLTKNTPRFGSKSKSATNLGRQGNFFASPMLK
The source made the active and inactive calls.
MEASUREMENT_KIND: IC50

### Prompt What value of IC50 has been reported for the following compound? CC(=O)C[C@H]1c2cc(F)ccc2S(=O)(=O)N1c1ccc(N(C)C)cc1
### Response 119 µM (active)

### Prompt Now consider COC(=O)C1CCN(C(=O)COC(=O)/C=C/c2ccc(O)c(OC)c2)CC1 and answer again.
### Response 49.7 µM (active)

### Prompt Nc1ccc(Nc2nc(-c3ccncc3)cs2)cc1 , same question.
### Response 9.36 µM (active)

### Prompt Then what about the compound Cc1ccccc1SCC(=O)OCC(=O)Nc1ccc(N(C)C)cc1 ?
### Response 66.7 µM (active)

### Prompt Also, COc1ccc(N2CCC(CN=C(S)Nc3cccc(C)c3)C2)cc1 (stereo unspecified) please.
### Response 39.3 µM (active)

### Prompt Let us now turn to CC/C(=C\c1ccc(N(C)C)cc1)c1ccncc1
### Response 30.2 µM (active)

### Prompt Try this compound too: COc1cc(OC)c2cc[nH]c2c1
### Response 108 µM (active)

### Prompt Follow-up entry: COc1ccc(CN2CCCN(C)CC2)c(OC)c1C
### Response 124 µM (active)

### Prompt Also O=C(CN1C(=O)c2ccccc2S1(=O)=O)c1ccc(O)c(O)c1 ?
### Response 175 µM (active)

### Prompt Now consider O=C(CN1CCN(c2ccc(O)cc2)CC1)N(C1CC1)C1CCS(=O)(=O)C1 (stereo unspecified) and answer again.
### Response 80.2 µM (active)

### Prompt Same for COCCNCCOCCOc1ccc(Cl)c(C)c1
### Response 138 µM (active)

###

test: Luminescence Cell-Based Dose Response HTS to Identify Activators of Luciferase Translation or Activity in H4 […] Cells. [Related pubchem assays: 1829 (Project Summary), 1814 (Primary HTS)]; type: functional
The source made the active and inactive calls.
MEASUREMENT_KIND: EC50

### Prompt Returns the measured EC50 for the input molecule. Input: Cc1ccc(OCC(=O)Nc2ccc3c(c2)OCO3)c(C)c1
### Response < 0.1 µM (active)

### Prompt // same read-out, input: COc1ccc2c(c1OC)C(=O)OC2Nc1nc(-c2ccc(-c3ccccc3)cc2)cs1 (stereo unspecified)
### Response < 0.1 µM (active)

### Prompt Please give the result for CC(c1nccs1)N(C)C(=O)c1cn(Cc2cccc3ccccc23)nn1 (stereo unspecified) too.
### Response 18 µM (active)

### Prompt Input Cc1ccc2nc(SCC(=O)c3ccccc3)nc(=O)n2c1
### Response 11 µM (active)

### Prompt Also need O=C(O)c1ccc(/C=N/N2CCN(c3ccccc3)CC2)cc1 , thanks.
### Response 19.6 µM (active)

### Prompt Please give the result for Cc1cc(=O)n2nc(-c3ccc(C(F)(F)F)cc3)sc2n1 too.
### Response > 120 µM (not active)

###

target: Cytochrome P450 2C19 (Homo sapiens, UniProt P33261); assay: Cytochrome panel assay with activity outcomes. Panel member name: p450-cyp2c19 Compounds with AC50 equal or less than 10 uM are considered active; format: functional
Sequence (P33261 whole entry): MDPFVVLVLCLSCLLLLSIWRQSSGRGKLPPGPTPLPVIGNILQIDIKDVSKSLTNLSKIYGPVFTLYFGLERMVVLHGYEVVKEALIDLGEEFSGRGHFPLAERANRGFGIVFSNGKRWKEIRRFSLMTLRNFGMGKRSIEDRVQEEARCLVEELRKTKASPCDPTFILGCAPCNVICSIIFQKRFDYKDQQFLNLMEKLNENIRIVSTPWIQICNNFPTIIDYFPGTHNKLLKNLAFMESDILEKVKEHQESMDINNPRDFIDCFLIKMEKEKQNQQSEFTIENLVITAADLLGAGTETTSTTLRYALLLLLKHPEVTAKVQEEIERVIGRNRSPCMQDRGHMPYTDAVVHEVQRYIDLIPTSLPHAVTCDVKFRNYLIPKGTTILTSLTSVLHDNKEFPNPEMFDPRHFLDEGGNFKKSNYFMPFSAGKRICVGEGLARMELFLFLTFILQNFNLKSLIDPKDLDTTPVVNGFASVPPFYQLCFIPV
MEASUREMENT_KIND: AC50

COMPOUND: COc1ccc(C(=O)C2=C(O)C(=O)N(CCCC(=O)O)C2c2ccc(OC)cc2)cc1 (stereo not given)
VALUE: inconclusive

COMPOUND: CCN(CC)CCNC(=O)Cn1nc(-c2ccc(C)cc2)ccc1=O
VALUE: inconclusive

COMPOUND: CCN(CC)Cc1c(O)c(Cl)cc2c3c(c(=O)oc12)CCCC3
VALUE: inconclusive

COMPOUND: Cc1ccc(S(=O)(=O)N(C)CC(=O)ONC(=N)c2ccccn2)cc1
VALUE: inconclusive

###

biological target: Tyrosyl-DNA phosphodiesterase 2 (Homo sapiens); assay: human TDP2 enzyme inhibitors, dose response, biochemical, epi absorbance, IC50 (AID 743297)
Sequence (O95551 whole entry): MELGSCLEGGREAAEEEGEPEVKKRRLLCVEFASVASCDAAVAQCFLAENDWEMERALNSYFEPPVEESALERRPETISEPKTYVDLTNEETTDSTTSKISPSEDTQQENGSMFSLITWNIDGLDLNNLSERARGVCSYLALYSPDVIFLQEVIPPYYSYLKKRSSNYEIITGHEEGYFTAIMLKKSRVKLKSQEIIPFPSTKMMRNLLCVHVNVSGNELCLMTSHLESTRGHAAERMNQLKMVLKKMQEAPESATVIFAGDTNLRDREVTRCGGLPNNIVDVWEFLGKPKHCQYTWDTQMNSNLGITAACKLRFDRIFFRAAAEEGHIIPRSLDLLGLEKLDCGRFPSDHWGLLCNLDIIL
Calls of active or inactive are those of the source.
Your answer must be one of the following: active, inactive

### Prompt Please share the test call associated with O=C(NC1(O)C(=O)c2ccccc2C1=O)c1ccc(C(F)(F)F)cc1 .
### Response active

### Prompt Repeat with O=C(NC1(O)C(=O)c2ccccc2C1=O)c1c(Cl)cccc1Cl
### Response active

### Prompt Next: O=C(O)CCCNc1cc(N2CCN(C(=O)c3ccco3)CC2)c2noc3c2c1C(=O)c1ccccc1-3
### Response inactive

### Prompt Item: O=C(NC1=CC(=O)c2ccccc2C1=O)c1ccccc1
### Response inactive

###

target: Heat shock factor protein 1 (Mus musculus, UniProt P38532); assay: HSF1 potentiators in luciferase reporter cells, confirmation, cell-based, NIH3T3, luminescence, dose retest (AID 435004); type: functional;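 further: stress induced by proteasome inhibitor MG132 added 30 min after compound; luciferase reporter driven by HSF1 response element in NIH3T3 cells; actives raise luminescence as potentiators of the MG132 stress response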
Sequence (P38532 whole entry): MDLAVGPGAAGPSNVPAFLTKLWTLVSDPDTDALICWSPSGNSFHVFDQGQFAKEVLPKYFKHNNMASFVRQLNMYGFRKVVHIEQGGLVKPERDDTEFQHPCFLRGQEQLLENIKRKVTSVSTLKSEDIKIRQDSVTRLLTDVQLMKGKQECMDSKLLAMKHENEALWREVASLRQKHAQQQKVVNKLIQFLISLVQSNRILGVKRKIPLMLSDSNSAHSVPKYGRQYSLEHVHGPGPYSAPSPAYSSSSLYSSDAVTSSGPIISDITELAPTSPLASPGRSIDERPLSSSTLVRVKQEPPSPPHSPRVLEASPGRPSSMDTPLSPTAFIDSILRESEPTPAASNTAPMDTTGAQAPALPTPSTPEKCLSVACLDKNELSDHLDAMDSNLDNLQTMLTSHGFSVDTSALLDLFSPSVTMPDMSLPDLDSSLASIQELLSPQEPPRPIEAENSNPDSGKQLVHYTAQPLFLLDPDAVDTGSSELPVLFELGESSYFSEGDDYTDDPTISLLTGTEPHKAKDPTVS
The source made the active and inactive calls.
Allowed answers: 1.0 (active), 0.0 (inactive)

### Prompt Hello, I am checking results. What call was entered for CC1=CC(C)(C)N=C(S)N1c1cccc(C)c1 ?
### Response 0.0

### Prompt Lookup O=C(O)CC1=C(Nc2ccccc2)C(=O)N(c2ccccc2)C1c1ccc(Cl)cc1 (stereo unspecified)
### Response 0.0

### Prompt Now consider CS(=O)(=O)Nc1cccc(C2=NN(C(=O)CCCC(=O)O)C(c3cccs3)C2)c1 (stereo unspecified) and answer again.
### Response 0.0

### Prompt What do we get for COc1cccc(-n2nc(C#N)c(Cl)cc2=O)c1 ?
### Response 1.0

### Prompt Likewise for Cc1cc(SC#N)cc(C)c1NC(=O)CCl ?
### Response 1.0

###

target: Genome polyprotein (dengue virus type 2, UniProt P29990); experiment: Dengue-2 NS5 methyltransferase inhibitors, primary screen, biochemical, confirmation dose response (AID 588689); type: functional
Calls of active or inactive are those of the source.
MEASUREMENT_KIND: IC50

### Prompt Which measured IC50 value corresponds to COC(=O)c1sc(-c2ccc(C(C)(C)C)cc2)cc1NC(=O)c1ccccc1C(=O)O ?
### Response 35.9 µM (active)

### Prompt Cool, now O=C1NN(c2ccccc2)C(=O)/C1=C\c1ccccc1OCC(=O)N1CCOCC1
### Response > 100 µM (active)

### Prompt Could you do the same for C/N=c1\scc(-c2cccs2)n1/N=C/c1ccc(O)c(O)c1O , please?
### Response 70.7 µM (active)

### Prompt Also check O=C(NC1=CC(=O)c2ccccc2C1=O)c1ccccc1
### Response 18.5 µM (active)

### Prompt Follow-up item: CN(C)c1c([N+](=O)[O-])cc(N2C(=O)C=CC2=O)cc1[N+](=O)[O-]
### Response 11.1 µM (active)

### Prompt Again, but for COc1ccc(/C=C2/SC(=S)N(CC(=O)O)C2=O)cc1OCc1ccc(Cl)cc1
### Response > 100 µM (active)

### Prompt Next compound: O=C(O)c1cccc(N2C(=O)C=CC2=O)c1
### Response 76.9 µM (active)
